# Subject Of Test: PDE5A (Homo sapiens, UniProt O76074)

{"Compound": "OCCN(CCO)c1nc(N2CCOCC2)c2nc(N(CCO)CCO)nc(N3CCOCC3)c2n1", "Subject Of Test": "PDE5A (Homo sapiens, UniProt O76074)", "Qualifier Symbol": ">", "IC50 [nM]": 500}
{"Compound": "O[C@@H]1CCN(c2nc(N3CCSC3)c3nc(N4CC[C@@H](O)C4)nc(N4CCSC4)c3n2)C1 [(R)-5c]", "Subject Of Test": "PDE5A (Homo sapiens, UniProt O76074)", "Qualifier Symbol": "=", "IC50 [nM]": 198}
{"Compound": "CC1CCCN1c1nc(N(CCO)CCO)nc2c(N3CCCC3C)nc(N(CCO)CCO)nc12 (stereo not drawn)", "Subject Of Test": "PDE5A (Homo sapiens, UniProt O76074)", "Qualifier Symbol": "=", "IC50 [nM]": 478}
{"Compound": "OCCN(CCO)c1nc(N2CC[C@H](F)C2)c2nc(N(CCO)CCO)nc(N3CC[C@H](F)C3)c2n1 [(S)-4h]", "Subject Of Test": "PDE5A (Homo sapiens, UniProt O76074)", "Qualifier Symbol": "=", "IC50 [nM]": 332}
{"Compound": "OCCN(CCO)c1nc(N2CCC(F)CC2)c2nc(N(CCO)CCO)nc(N3CCC(F)CC3)c2n1", "Subject Of Test": "PDE5A (Homo sapiens, UniProt O76074)", "Qualifier Symbol": "=", "IC50 [nM]": 343}
{"Compound": "OC[C@@H]1CCCN(c2nc(N3CCSC3)c3nc(N4CCC[C@@H](CO)C4)nc(N4CCSC4)c3n2)C1 [(R)-5b]", "Subject Of Test": "PDE5A (Homo sapiens, UniProt O76074)", "Qualifier Symbol": "=", "IC50 [nM]": 109}
